# assayProtocol: NCI Yeast Anticancer Drug Screen. Data for the rad14 strain (AID 159);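 also: 0% = growth of vehicle-treated control cultures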
# appliedConditions: S. cerevisiae rad14 strain growth inhibition; at 3.7 µM; stronger effect = higher value
Compounds without any hit were thinned out: in the full panel of roughly 79,000, 15% have a hit.
Measured growth inhibition accompanies every entry in the list below.
Give just the number in %; leave the unit off.

{"compound": "CC1CCC2(NC1)OC1CC3C4CCC5CC(OC6OC(CO)C(OC7OC(CO)C(O)C(OC8OCC(O)C(O)C8O)C7OC7OC(CO)C(O)C(O)C7O)C(O)C6O)CCC5(C)C4CCC3(C)C1C2C (stereo not given)", "readingUnit": "%", "growth inhibition": 6}
{"compound": "CCCN(CCC)c1c([N+](=O)[O-])cc(S(N)(=O)=O)cc1[N+](=O)[O-]", "readingUnit": "%", "growth inhibition": -18}
{"compound": "NC1=NCC(c2ccc(Cl)cc2)O1 (stereo not given)", "readingUnit": "%", "growth inhibition": -3}

Given item O=C(O)C1C2c3ccccc3C(c3ccccc32)C1C(=O)O (stereo not given) , the value recorded as its growth inhibition is 1

Given item "[N-]=[N+]=C1C(Cl)=C(Cl)C(Cl)=C1Cl" , the value recorded as its growth inhibition is 5

Given item "O=c1oc2ccccc2c(O)c1C(c1ccc2c(c1)Cc1ccccc1-2)c1c(O)c2ccccc2oc1=O" , the value recorded as its growth inhibition is 14
